- Tested on: Mus musculus
- Assay name: Biodistribution in small gastrointestinal tract of C57BL/6J mouse bearing mouse B16F0 cells at 0.37 to 1.85 MBq, iv after 6 hrs by gamma counting method
- Format: ADME, organism-based, Small intestine
- Stated conditions: in vivo
Measurement kind: Drug uptake (% ID/g)

Below, each entry is followed by its recorded Drug uptake result.
Req: Quickly give me recorded Drug uptake for O=C(CN1Cc2ccccc2C1=O)NC1CCN(Cc2ccc([123I])cc2)CC1
Resp: 9.8

Req: Quickly give me recorded Drug uptake for O=C(c1ccc2cccnc2n1)N1CCN(Cc2ccc([123I])cc2)CC1
Resp: 6.1

I. O=C(CN1Cc2ccccc2C1=O)N1C[C@H]2CN(Cc3ccc([123I])cc3)C[C@H]2C1
II. O=C(c1ccc2c(n1)NCCC2)N1CCN(Cc2ccc([123I])cc2)CC1
Req: Given the listed records, identify the one among I and II with higher Drug uptake. When you have decided, please share the label of that item.
Resp: II
(II: 11.5 % ID/g, I: 2.6 % ID/g)

====

- System: Kidney
- Assay name: Biodistribution in kidney of C57BL/6J mouse bearing mouse B16F0 cells at 0.37 to 1.85 MBq, iv after 1 hr by gamma counting method
- Type: ADME, organism-based
- Stated conditions: in vivo
Measurement kind: Drug uptake (% ID/g)

Req: Return reported Drug uptake for target or system Kidney, item O=C(CN1Cc2ccccc2C1=O)N1C[C@H]2CN(Cc3ccc([123I])cc3)C[C@H]2C1 .
Resp: 15.8

P. O=C(c1ccc2c(n1)NCCC2)N1CCN(Cc2ccc([123I])cc2)CC1
Q. O=C(CN1Cc2ccccc2C1=O)NC1CCN(Cc2ccc([123I])cc2)CC1
Req: Given the listed records, identify the one among P and Q with higher Drug uptake. When you have decided, please share the label of that item.
Resp: P
